- EXPERIMENTAL_TARGET: LTA4 hydrolase (Cavia porcellus, UniProt P19602)
- Construct: Lungs were excised from a Hartley guinea pig; from tissue; host or cells: Hartley guinea pig lung, 100,000×g supernatant, 40-70% ammonium sulfate fraction, dialyzed
- Sequence (P19602 1-611): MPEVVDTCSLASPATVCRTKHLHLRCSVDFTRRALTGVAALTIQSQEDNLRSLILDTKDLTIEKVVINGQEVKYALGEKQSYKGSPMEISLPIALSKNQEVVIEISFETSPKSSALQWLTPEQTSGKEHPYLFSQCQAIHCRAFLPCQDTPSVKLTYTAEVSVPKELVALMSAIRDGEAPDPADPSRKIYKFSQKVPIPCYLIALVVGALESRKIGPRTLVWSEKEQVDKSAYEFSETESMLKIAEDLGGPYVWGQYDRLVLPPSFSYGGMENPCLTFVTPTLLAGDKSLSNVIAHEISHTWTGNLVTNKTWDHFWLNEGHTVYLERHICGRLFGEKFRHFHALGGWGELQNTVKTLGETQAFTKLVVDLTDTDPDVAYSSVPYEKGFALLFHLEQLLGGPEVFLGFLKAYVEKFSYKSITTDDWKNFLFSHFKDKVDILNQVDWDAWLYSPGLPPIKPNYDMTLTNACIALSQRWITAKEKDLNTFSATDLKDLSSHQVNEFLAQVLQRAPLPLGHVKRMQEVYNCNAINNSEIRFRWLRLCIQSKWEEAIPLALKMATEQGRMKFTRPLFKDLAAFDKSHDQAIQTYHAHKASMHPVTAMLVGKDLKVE
- ASSAY_COMMENT: LTA4 hydrolase inhibition (LTB4 formed from LTA4, guinea pig lung enzyme preparation)
- Assay type: biochemical
- CONDITIONS_USED: Table 2; guinea pig lung enzyme preparation; LTA4 63 μM; 37° C., one minute; pH 7.8; read-out: IC50 (concentration required to inhibit LTA4 hydrolase by 50%)
pIC50: −log10 of the molar value.
REPORTED_ENDPOINT: pIC50

Here are 3 compounds together with their reported answers.
{"COMPOUND": "C[C@H](CSC(=O)c1ccccc1)C(=O)N[C@@H](CSCc1ccc(C(F)(F)F)cc1)C(=O)O", "pIC50": 7.00}
{"COMPOUND": "CCc1ccc(CSC[C@H](NC(=O)[C@H](C)CS)C(=O)O)cc1", "pIC50": 6.55}
{"COMPOUND": "C[C@H](CSC(=O)c1ccccc1)C(=O)N[C@@H](CSCc1ccc([N+](=O)[O-])cc1)C(=O)O", "pIC50": 6.54}

a = C[C@H](CSC(=O)c1ccccc1)C(=O)N[C@@H](CSCc1ccc(I)cc1)C(=O)O
b = C[C@H](CS)C(=O)N[C@@H](CSCc1ccc(C(F)(F)F)cc1)C(=O)O
c = C[C@H](CS)C(=O)N[C@@H](CSCc1ccc(C(C)(C)C)cc1)C(=O)O
d = C[C@H](CSC(=O)c1ccccc1)C(=O)N[C@@H](CSCc1ccc(Cl)cc1)C(=O)O
e = C[C@H](CS)C(=O)N[C@@H](CSCc1ccc(I)cc1)C(=O)O
// ranking: key=pIC50, reverse=True Sort and list the labels as requested.
e, c, a, b, d

A = CSc1ccc(CSC[C@H](NC(=O)[C@H](C)CS)C(=O)O)cc1
B = CCCc1ccc(CSC[C@H](NC(=O)[C@H](C)CS)C(=O)O)cc1
// compare measured pIC50, left A , right B , return larger To answer, give the label that identifies your chosen option.
A
(A: 7.34, B: 7.14)
